Known shrunken log2 fold change of a selection of sequences
test system: Escherichia coli TOP10; test: shrunken log2 fold change of peptide-encoding DNA abundance (4.5 h post-induction vs induction); higher = less antimicrobial activity (less host growth inhibition); conditions: time post-induction: 4.5 h; library: site-saturation at positions 5, 18, 19, 20
# output: bare number, no unit

# SEQUENCE_RECORD, READING
records = [
    ("RRIRNRPPRLPRPRPRPHEIPRP", -0.102),
    ("RRIRGRPPRLPRPRPRPLIWPRP", 0.602),
    ("RRIRMRPPRLPRPRPRPCPAPRP", 0.574),
]

--- query ---
q: Which shrunken log2 fold change is listed for "RRIRYRPPRLPRPRPRPRVVPRP" ?
a: -0.405

---

tested on: Escherichia coli TOP10; assay: shrunken log2 fold change of peptide-encoding DNA abundance (4.5 h post-induction vs induction); higher = less antimicrobial activity (less host growth inhibition); conditions: time post-induction: 4.5 h; library: site-saturation at positions 5, 18, 19, 20
Entries get a class label from measured shrunken log2 fold change. See ranges: low bin: < -0.1; mid bin: ≥ -0.1 and < 0.007; high bin: ≥ 0.007

Check out these entries, answers already filled in.
# SEQUENCE_RECORD, ASSIGNED_CLASS
records = [
    ("RRIRWRPPRLPRPRPRPYVLPRP", "low bin"),
    ("RRIRMRPPRLPRPRPRPDHFPRP", "mid bin"),
    ("RRIRFRPPRLPRPRPRPHACPRP", "low bin"),
]

q: Bin? "RRIRRRPPRLPRPRPRPYSMPRP"
a: low bin

q: Bin? "RRIRTRPPRLPRPRPRPSTTPRP"
a: mid bin

q: Bin? "RRIRNRPPRLPRPRPRPMNQPRP"
a: low bin

---

Known shrunken log2 fold change of a selection of sequences
tested on: Escherichia coli TOP10; experiment: shrunken log2 fold change of peptide-encoding DNA abundance (4.5 h post-induction vs induction); higher = less antimicrobial activity (less host growth inhibition); settings: time post-induction: 4.5 h; library: site-saturation at positions 5, 18, 19, 20;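 note: peptides expressed intracellularly from a pBAD plasmid library in pooled LB shake-flask culture, induced with 0.3% L-arabinose, DNA abundance read by NGS, three biological replicates, DESeq2 with apeglm shrinkage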

# SEQUENCE_RECORD, TARGET_UNDER_TEST, shrunken log2 fold change
records = [
    ("RRIRIRPPRLPRPRPRPWKSPRP", "Escherichia coli TOP10", -0.0108),
    ("RRIRTRPPRLPRPRPRPLSWPRP", "Escherichia coli TOP10", 0.0654),
    ("RRIRCRPPRLPRPRPRPMKSPRP", "Escherichia coli TOP10", -0.1),
    ("RRIRSRPPRLPRPRPRPKMVPRP", "Escherichia coli TOP10", -0.309),
    ("RRIRIRPPRLPRPRPRPWNNPRP", "Escherichia coli TOP10", -0.89),
]

q: Form field - read-out: shrunken log2 fold change; system: Escherichia coli TOP10; submitted item: "RRIRSRPPRLPRPRPRPAGYPRP"
a: 0.0337

q: Form field - read-out: shrunken log2 fold change; system: Escherichia coli TOP10; submitted item: "RRIRMRPPRLPRPRPRPRSYPRP"
a: 0.068

q: Form field - read-out: shrunken log2 fold change; system: Escherichia coli TOP10; submitted item: "RRIRARPPRLPRPRPRPANFPRP"
a: 0.137

q: Form field - read-out: shrunken log2 fold change; system: Escherichia coli TOP10; submitted item: "RRIRWRPPRLPRPRPRPTEPPRP"
a: -0.0787

q: Form field - read-out: shrunken log2 fold change; system: Escherichia coli TOP10; submitted item: "RRIRSRPPRLPRPRPRPPRVPRP"
a: 0.142

q: Form field - read-out: shrunken log2 fold change; system: Escherichia coli TOP10; submitted item: "RRIRHRPPRLPRPRPRPPKKPRP"
a: -0.0115

q: Form field - read-out: shrunken log2 fold change; system: Escherichia coli TOP10; submitted item: "RRIRRRPPRLPRPRPRPKRRPRP"
a: 0.525

q: Form field - read-out: shrunken log2 fold change; system: Escherichia coli TOP10; submitted item: "RRIRTRPPRLPRPRPRPQEEPRP"
a: -0.0236

q: Form field - read-out: shrunken log2 fold change; system: Escherichia coli TOP10; submitted item: "RRIRYRPPRLPRPRPRPKNDPRP"
a: -0.737

q: Form field - read-out: shrunken log2 fold change; system: Escherichia coli TOP10; submitted item: "RRIRTRPPRLPRPRPRPIYAPRP"
a: 0.0866

q: Form field - read-out: shrunken log2 fold change; system: Escherichia coli TOP10; submitted item: "RRIRMRPPRLPRPRPRPDAMPRP"
a: 2.44

q: Form field - read-out: shrunken log2 fold change; system: Escherichia coli TOP10; submitted item: "RRIRDRPPRLPRPRPRPYMRPRP"
a: -0.0888

q: Form field - read-out: shrunken log2 fold change; system: Escherichia coli TOP10; submitted item: "RRIRPRPPRLPRPRPRPVLEPRP"
a: -0.147

q: Form field - read-out: shrunken log2 fold change; system: Escherichia coli TOP10; submitted item: "RRIRRRPPRLPRPRPRPMNHPRP"
a: -0.281
